B1: library; numbered along this chain (parent)
chain: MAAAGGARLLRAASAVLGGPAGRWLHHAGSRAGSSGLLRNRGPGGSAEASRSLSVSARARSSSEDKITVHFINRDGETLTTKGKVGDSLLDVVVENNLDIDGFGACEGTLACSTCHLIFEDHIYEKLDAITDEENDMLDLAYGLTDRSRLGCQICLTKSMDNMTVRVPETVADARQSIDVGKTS

# Variants of: B1
# protocol-description: scaled log2 fold change in cell abundance, elesclomol vs control (0 = silent mean, 1 = nonsense mean) (scaled log2 ratio); higher = higher viability under elesclomol (loss of FDX1 cuproptosis function);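 further: variant abundance is its share of total variant reads in each endpoint sample, from next-generation sequencing of the integrated ORF PCR-amplified out of genomic DNA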
# condition: with ABC1 FDX1 KO; elesclomol 5 nM; glucose 10 mM; 14 days
Overview of reported scaled log2 fold change across a group of variants:
recorded-endpoint: scaled log2 fold change

change=L90W recorded_endpoint="scaled log2 fold change" result_number=-0.148
change=T170Q recorded_endpoint="scaled log2 fold change" result_number=0.241
change=R149M recorded_endpoint="scaled log2 fold change" result_number=0.689
change=Q153N recorded_endpoint="scaled log2 fold change" result_number=-0.0628
change=R166Q recorded_endpoint="scaled log2 fold change" result_number=-0.338
change=V16C recorded_endpoint="scaled log2 fold change" result_number=0.174
change=K84T recorded_endpoint="scaled log2 fold change" result_number=-0.0915
change=K66T recorded_endpoint="scaled log2 fold change" result_number=0.0453
change=L117M recorded_endpoint="scaled log2 fold change" result_number=0.167
change=V93N recorded_endpoint="scaled log2 fold change" result_number=0.524
change=G22Y recorded_endpoint="scaled log2 fold change" result_number=0.703
change=R39A recorded_endpoint="scaled log2 fold change" result_number=0.0642
change=M160R recorded_endpoint="scaled log2 fold change" result_number=0.249
change=G104R recorded_endpoint="scaled log2 fold change" result_number=0.848
change=R175W recorded_endpoint="scaled log2 fold change" result_number=0.307
change=S62C recorded_endpoint="scaled log2 fold change" result_number=-0.366
change=M163L recorded_endpoint="scaled log2 fold change" result_number=0.385
change=G143Y recorded_endpoint="scaled log2 fold change" result_number=0.0128
change=L98Q recorded_endpoint="scaled log2 fold change" result_number=0.167
change=V165R recorded_endpoint="scaled log2 fold change" result_number=1.09
change=R74I recorded_endpoint="scaled log2 fold change" result_number=-0.228
change=L156C recorded_endpoint="scaled log2 fold change" result_number=0.353
